target: 17-beta-hydroxysteroid dehydrogenase type 1 (Homo sapiens); assay: Inhibition of 17beta-HSD1 (unknown origin) expressed in HEK293 cells lysate assessed as residual enzyme activity at 20 uM; type: cell-free
// reported Activity for each item listed

smiles_text: O=S(=O)(Nc1cccc(O)c1)c1ccc(Br)cc1
Activity: > 70%

The compound CC(C)(C)c1ccc(S(=O)(=O)Oc2ccccc2O)cc1 on 17-beta-hydroxysteroid dehydrogenase type 1 (Homo sapiens): Activity was > 70%

The compound COc1ccc(S(=O)(=O)Nc2cccc(O)c2)c2c1CCCC2 on 17-beta-hydroxysteroid dehydrogenase type 1 (Homo sapiens): Activity was 53%

The compound O=S(=O)(Nc1ccc(O)c(Cl)c1)c1ccc(F)cc1 on 17-beta-hydroxysteroid dehydrogenase type 1 (Homo sapiens): Activity was > 70%

The compound O=C(CSc1nccc(O)n1)Nc1cccc2nsnc12 on 17-beta-hydroxysteroid dehydrogenase type 1 (Homo sapiens): Activity was > 70%

The compound Clc1ccc(Cl)c(-c2ccc(CNc3nn[nH]n3)o2)c1 on 17-beta-hydroxysteroid dehydrogenase type 1 (Homo sapiens): Activity was > 70%

# credit: ChEMBL document CHEMBL3351838
